Assignment: determine reported IC50 for the given molecules.
- assayed system: human TLR8 (Homo sapiens, UniProt Q9NR97)
- Sequence (Q9NR97 27-1041): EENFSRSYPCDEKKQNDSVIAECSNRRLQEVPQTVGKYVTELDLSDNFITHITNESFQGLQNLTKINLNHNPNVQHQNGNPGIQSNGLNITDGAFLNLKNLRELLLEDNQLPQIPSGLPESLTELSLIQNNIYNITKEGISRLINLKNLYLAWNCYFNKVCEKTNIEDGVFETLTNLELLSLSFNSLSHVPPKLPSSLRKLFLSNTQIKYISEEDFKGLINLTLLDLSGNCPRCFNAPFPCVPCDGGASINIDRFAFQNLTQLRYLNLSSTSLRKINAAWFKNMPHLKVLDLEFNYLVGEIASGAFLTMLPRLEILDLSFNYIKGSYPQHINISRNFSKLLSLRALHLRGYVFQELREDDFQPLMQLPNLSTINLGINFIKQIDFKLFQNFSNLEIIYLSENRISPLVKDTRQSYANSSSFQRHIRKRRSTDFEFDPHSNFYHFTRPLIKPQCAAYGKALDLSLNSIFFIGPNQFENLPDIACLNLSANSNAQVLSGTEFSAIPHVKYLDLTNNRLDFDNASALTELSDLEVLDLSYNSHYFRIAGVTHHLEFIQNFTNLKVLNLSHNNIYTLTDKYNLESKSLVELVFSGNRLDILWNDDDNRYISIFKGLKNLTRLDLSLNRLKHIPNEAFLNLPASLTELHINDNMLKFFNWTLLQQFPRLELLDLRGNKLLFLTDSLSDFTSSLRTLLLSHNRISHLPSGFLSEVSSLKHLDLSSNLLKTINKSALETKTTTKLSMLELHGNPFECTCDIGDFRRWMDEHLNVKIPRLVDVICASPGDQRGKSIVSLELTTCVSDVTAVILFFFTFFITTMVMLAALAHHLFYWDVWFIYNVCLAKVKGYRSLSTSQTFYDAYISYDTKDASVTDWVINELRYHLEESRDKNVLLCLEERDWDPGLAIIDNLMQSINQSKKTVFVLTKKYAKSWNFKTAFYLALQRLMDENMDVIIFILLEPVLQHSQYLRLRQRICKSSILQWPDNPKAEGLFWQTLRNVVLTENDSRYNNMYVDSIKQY
- experiment: TLR8 inhibition reporter assay (HEK-Blue cells, SEAP reporter, R848 stimulation)
- experimental context: HEK-Blue cells overexpressing human TLR8, SEAP reporter, R848 15.9 μM

Note down IC50 recorded for Cc1c(-c2ccnc3[nH]cc(C(C)C)c23)[nH]c2ccc(C3CCNCC3)cc12
1000 to 50000 nM

Note down IC50 recorded for Cc1cc(-c2[nH]c3ccc(C4CCN(CC#N)CC4)cc3c2C(C)C)cn2ccnc12
< 100 nM

Note down IC50 recorded for Cc1cc(-c2[nH]c3ccc(C4CCN(CC(=O)N(C)C)CC4)cc3c2C(C)C)cc2[nH]cnc12
100 to 1000 nM

Note down IC50 recorded for CCN(C)C(=O)c1cn2cc(-c3[nH]c4ccc(C5CCNCC5)cc4c3C(C)C)cc(C)c2n1
< 100 nM

Hey, just so you know, these numbers are from patent US11739098B2.
